ASSAY TARGET: 3 beta-hydroxysteroid dehydrogenase/Delta 5-->4-isomerase type 1 (Homo sapiens)
Sequence (P14060 whole entry): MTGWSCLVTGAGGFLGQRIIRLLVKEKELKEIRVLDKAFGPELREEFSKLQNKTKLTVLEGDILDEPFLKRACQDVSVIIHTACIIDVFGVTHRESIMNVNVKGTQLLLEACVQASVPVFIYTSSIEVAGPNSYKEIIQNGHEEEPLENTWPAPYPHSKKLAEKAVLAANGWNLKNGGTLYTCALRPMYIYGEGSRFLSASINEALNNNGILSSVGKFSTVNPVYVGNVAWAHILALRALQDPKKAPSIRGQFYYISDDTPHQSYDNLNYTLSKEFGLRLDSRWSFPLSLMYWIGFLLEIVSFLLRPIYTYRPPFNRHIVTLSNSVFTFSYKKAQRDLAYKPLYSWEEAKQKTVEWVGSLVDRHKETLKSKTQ
TEST METHOD NOTES: Binding affinity on 3 beta-hydroxysteroid dehydrogenase
As shown below, each of these compounds has a reported IC50 value.
QUANTITY KIND: IC50 (nM)

CC(C)(C)CC(C)(C)NC(=O)[C@H]1CCC2C3CNC4=CC(=O)CC[C@]4(C)C3CC[C@@]21C (some centres not stated) :: 150
CC(C)(C)CCNC(=O)[C@H]1CCC2C3CNC4=CC(=O)CC[C@]4(C)C3CC[C@@]21C (some centres not stated) :: 8.3

----------
ASSAY TARGET: Alpha-1D adrenergic receptor (Homo sapiens)
Sequence (P25100 whole entry): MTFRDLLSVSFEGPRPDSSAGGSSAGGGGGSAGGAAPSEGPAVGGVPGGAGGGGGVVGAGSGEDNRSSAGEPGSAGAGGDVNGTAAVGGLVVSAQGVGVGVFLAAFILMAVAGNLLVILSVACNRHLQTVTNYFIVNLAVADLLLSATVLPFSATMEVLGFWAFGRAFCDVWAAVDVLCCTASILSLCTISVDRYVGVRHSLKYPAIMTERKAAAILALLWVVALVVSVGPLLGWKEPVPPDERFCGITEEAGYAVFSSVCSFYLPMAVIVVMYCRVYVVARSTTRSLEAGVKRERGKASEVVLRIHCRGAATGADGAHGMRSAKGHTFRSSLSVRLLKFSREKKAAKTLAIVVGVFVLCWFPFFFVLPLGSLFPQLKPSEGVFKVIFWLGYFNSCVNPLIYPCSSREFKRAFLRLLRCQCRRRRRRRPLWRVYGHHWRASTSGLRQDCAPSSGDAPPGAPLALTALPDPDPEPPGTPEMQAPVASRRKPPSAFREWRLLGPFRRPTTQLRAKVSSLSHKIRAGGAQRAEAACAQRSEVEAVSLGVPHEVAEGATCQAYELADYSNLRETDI
TEST METHOD NOTES: Binding affinity was tested on human Alpha-1D adrenergic receptor
QUANTITY KIND: Ki (nM)

COc1ccc(CCN2CCC(c3nc(COCC(F)(F)F)c(-c4ccc(F)cc4)o3)CC2)cc1S(N)(=O)=O :: 25.1
CCOc1ccccc1OCCN[C@H](C)Cc1ccc(OC)c(S(N)(=O)=O)c1 (stereo in doubt; form 1) [TAMSULOSIN] :: 0.158
CC(C)(Cc1c[nH]c2ccc(Cl)cc12)NCCOc1ccccc1OCC1CC1 :: 15.8
COc1ccc(CCNCC2CCc3ccccc3C2)cc1 (centres undefined) :: 158

----------
Parameter pIC50, tested on UniProt:P43140, listed per item.
Sequence (P43140 whole entry): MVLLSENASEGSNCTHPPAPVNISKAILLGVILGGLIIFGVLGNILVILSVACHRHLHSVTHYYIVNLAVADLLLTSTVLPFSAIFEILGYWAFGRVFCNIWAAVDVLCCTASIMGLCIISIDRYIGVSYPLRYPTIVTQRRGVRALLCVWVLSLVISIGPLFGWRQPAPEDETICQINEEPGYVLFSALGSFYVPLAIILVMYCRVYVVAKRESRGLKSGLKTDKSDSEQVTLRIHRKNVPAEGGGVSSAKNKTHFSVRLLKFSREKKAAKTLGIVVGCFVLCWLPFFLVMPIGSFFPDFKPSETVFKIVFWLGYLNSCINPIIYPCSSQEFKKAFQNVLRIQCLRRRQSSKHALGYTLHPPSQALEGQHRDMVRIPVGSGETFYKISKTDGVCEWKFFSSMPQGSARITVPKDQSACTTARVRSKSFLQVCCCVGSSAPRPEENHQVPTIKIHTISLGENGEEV
pIC50: −log10 of the molar value.
QUANTITY KIND: pIC50

COc1ccccc1N1CCN(CCCCOc2cccc3c(=O)c(C)c(-c4ccccc4)oc23)CC1 :: 8.00
COc1ccccc1N1CCN(CCNC(=O)c2cccc3c(=O)c(C)c(-c4ccccc4)oc23)CC1 :: 7.85

----------
As shown below, each of these compounds has a reported IC50 value.
ASSAY TARGET: 3-oxo-5-alpha-steroid 4-dehydrogenase 1 (Homo sapiens)
Sequence (P18405 whole entry): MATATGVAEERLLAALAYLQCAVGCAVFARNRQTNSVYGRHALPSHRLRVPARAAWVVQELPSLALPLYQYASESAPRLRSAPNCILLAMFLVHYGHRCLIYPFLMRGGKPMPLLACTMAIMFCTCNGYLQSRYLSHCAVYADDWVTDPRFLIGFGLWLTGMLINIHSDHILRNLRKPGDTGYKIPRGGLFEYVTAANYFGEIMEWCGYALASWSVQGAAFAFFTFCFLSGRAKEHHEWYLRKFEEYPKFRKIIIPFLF
QUANTITY KIND: IC50 (nM)

C[C@]12C=CC(=O)NC1CCC1C2CC[C@@]2(C)C1CC[C@@H]2C(=O)Nc1ccccc1 (some centres undefined) :: 20
Cc1c(C(=O)c2ccc3c(c2)OC(c2ccc(Cl)cc2)(c2ccc(Cl)cc2)O3)c2ccccc2n1CCCC(=O)O :: 10
C[C@]12C=CC(=O)NC1CCC1C2CC[C@@]2(C)C1CC[C@@H]2C(=O)Nc1cccc2ccccc12 (some centres undefined) :: 8.1
CC(C)Cc1ccc(C(Nc2cccc(C(=O)c3cn(CCCC(=O)O)c4ccccc34)c2)c2ccc(CC(C)C)cc2)cc1 :: 38

----------
As shown below, each of these compounds has a reported pKi value.
ASSAY TARGET: Alpha-1A adrenergic receptor (Homo sapiens)
Sequence (P35348 whole entry): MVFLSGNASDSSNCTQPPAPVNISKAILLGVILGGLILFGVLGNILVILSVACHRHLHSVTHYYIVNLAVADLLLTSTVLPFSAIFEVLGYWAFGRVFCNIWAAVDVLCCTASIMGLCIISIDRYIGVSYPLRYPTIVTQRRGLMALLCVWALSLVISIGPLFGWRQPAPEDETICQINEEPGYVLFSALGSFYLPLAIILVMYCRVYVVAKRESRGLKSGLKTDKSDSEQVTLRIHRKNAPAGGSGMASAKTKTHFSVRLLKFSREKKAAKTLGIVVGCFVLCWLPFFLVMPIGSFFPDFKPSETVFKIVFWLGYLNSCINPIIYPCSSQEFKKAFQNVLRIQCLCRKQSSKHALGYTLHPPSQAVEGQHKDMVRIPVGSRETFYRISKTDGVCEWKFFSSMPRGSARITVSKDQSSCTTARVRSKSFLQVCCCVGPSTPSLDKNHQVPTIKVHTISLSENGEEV
pKi: −log10 of the molar value.
QUANTITY KIND: pKi

COc1c(C)c(C)c(O)c(C)c1CN(C)CCOc1cc(C)c(O)cc1C(C)C :: 9.40
COc1ccc(CCNCC2CCc3ccccc3C2)cc1 (stereo not given) :: 8.40
COc1ccccc1N1CCN(CCCNc2c(C)c(=O)n(C)c(=O)n2C)CC1 :: 9.20
CO/C(O)=C1\C(C)=NC(C)=C(C(=O)NCCCN2CCC(c3ccccc3)(c3ccccc3)CC2)C1c1ccc(OC(C)C)cc1 (stereo not given) :: 7.16
CO/C(O)=C1\C(C)=NC(C)=C(C(=O)NCCCCN2CCC(c3ccccc3)(c3ccccc3)CC2)C1c1ccc([N+](=O)[O-])cc1 (stereo not given) :: 8.23
